Target: GDP-KRAS G12D mutant protein (Homo sapiens, UniProt P01116, G12D)
Construct: purchased Daegu Gyeongbuk Medical Innovation Foundation (DGMIF), made to order
Assay: Differential scanning fluorimetry (DSF) binding affinity to GDP-KRAS G12D mutant protein
Details: DSF thermal shift, 10 μM compound, 4 μg KRAS protein
Response field label: string, one of Fulfilled (GDP-KRAS G12D (ΔTmD, ° C.) strictly below 9 °C) or Not fulfilled.

Some entries whose results are on file:
Criterion: GDP-KRAS G12D (ΔTmD, ° C.) strictly below 9 °C. Is it met by Cc1cc2c(o1)c(-c1ccc(F)c3sc(N)c(C#N)c13)c(F)c1nc(OC[C@@]34CCCN3C/C(=C\F)C4)nc(N3C[C@H]4CC[C@@H](C3)N4)c12 [Example 63] ?
Fulfilled

Criterion: GDP-KRAS G12D (ΔTmD, ° C.) strictly below 9 °C. Is it met by Cc1cc2c(o1)c(-c1cc(O)cc3ccccc13)cc1nc(OC[C@@]34CCCN3C[C@H](F)C4)nc(N3C[C@H]4CC[C@@H](C3)N4)c12 [Example 41] ?
Fulfilled

Criterion: GDP-KRAS G12D (ΔTmD, ° C.) strictly below 9 °C. Is it met by C#Cc1c(F)ccc2cc(N)cc(-c3cc4nc(OC[C@@]56CCCN5C[C@H](F)C6)nc(N5[C@@H]6CC[C@H]5CNC6)c4n4ccnc34)c12 [Example 14] ?
Fulfilled

Criterion: GDP-KRAS G12D (ΔTmD, ° C.) strictly below 9 °C. Is it met by Cc1cc2[nH]ncc2c(-c2cc3nc(OC[C@@]45CCCN4C[C@H](F)C5)nc(N4C[C@H]5CC[C@@H](C4)N5)c3n3ccnc23)c1C(F)(F)F [Example 26] ?
Fulfilled

Criterion: GDP-KRAS G12D (ΔTmD, ° C.) strictly below 9 °C. Is it met by CCc1c(F)ccc2cc(O)cc(-c3c(F)c4nc(OC[C@@]56CCCN5CC(=C(F)F)C6)nc(N5C[C@H]6CC[C@@H](C5)N6)c4c4cn(C)nc34)c12 [Example 97] ?
Not fulfilled

Criterion: GDP-KRAS G12D (ΔTmD, ° C.) strictly below 9 °C. Is it met by C#Cc1c(F)ccc2cc(O)cc(-c3cc4nc(OC[C@@]56CCCN5C/C(=C\F)C6)nc(N5C[C@H]6CC[C@@H](C5)N6)c4c4cn(C)nc34)c12 [Example 75] ?
Not fulfilled

Next:
Criterion: GDP-KRAS G12D (ΔTmD, ° C.) strictly below 9 °C. Is it met by C#Cc1c(F)ccc2cc(O)cc(-c3cc4nc(OCC5(CN6CCCC6)CC5)nc(N5[C@@H]6CC[C@H]5CNC6)c4n4ccnc34)c12 [Example 17] ?
Not fulfilled

Criterion: GDP-KRAS G12D (ΔTmD, ° C.) strictly below 9 °C. Is it met by Cn1cc2c(n1)c(-c1cc(O)cc3ccccc13)cc1nc(OC[C@@]34CCCN3C[C@H](F)C4)nc(N3C[C@H]4CC[C@@H](C3)N4)c12 [Example 68] ?
Fulfilled

Criterion: GDP-KRAS G12D (ΔTmD, ° C.) strictly below 9 °C. Is it met by C#Cc1c(F)ccc2cc(O)cc(-c3c(F)c4nc(OC[C@@]56CCCN5CC(=C(F)F)C6)nc(N5C[C@H]6CC[C@@H](C5)N6)c4c4cn(C)nc34)c12 [Example 90] ?
Not fulfilled

Criterion: GDP-KRAS G12D (ΔTmD, ° C.) strictly below 9 °C. Is it met by C#Cc1c(F)ccc2cc(O)cc(-c3cc4nc(OC[C@@]56CCCN5C/C(=C\F)C6)nc(N5[C@@H]6CC[C@H]5CNC6)c4n4ccnc34)c12 [Example 23] ?
Not fulfilled

* * *

Biological target: GppNHp-KRAS G12D mutant protein (Homo sapiens, UniProt P01116, G12D)
Construct: purchased Daegu Gyeongbuk Medical Innovation Foundation (DGMIF), made to order
Assay: Differential scanning fluorimetry (DSF) binding affinity to GppNHp-KRAS G12D mutant protein
Settings: DSF thermal shift, 10 μM compound, 4 μg KRAS protein, 50 mM HEPES (pH 7.5)
VALUE_KIND: GppNHp-KRAS G12D (ΔTmD, ° C.) (°C)
Give bare numbers, in °C.

Please review the following examples before continuing.
Test system GppNHp-KRAS G12D mutant protein (Homo sapiens, UniProt P01116, G12D); read-out GppNHp-KRAS G12D (ΔTmD, ° C.); what value for `C#Cc1c(F)ccc2cc(O)cc(-c3c(F)c4nc(OC[C@@]56CCCN5CC(=C(F)F)C6)nc(N5C[C@H]6CC[C@@H](C5)N6)c4c4cn(C)nc34)c12` ?
11.38

Test system GppNHp-KRAS G12D mutant protein (Homo sapiens, UniProt P01116, G12D); read-out GppNHp-KRAS G12D (ΔTmD, ° C.); what value for `C#Cc1c(F)ccc2cc(N)cc(-c3cc4nc(OC[C@@]56CCCN5C/C(=C\F)C6)nc(N5[C@@H]6CC[C@H]5CNC6)c4n4ccnc34)c12` ?
6.65

--- query ---
Test system GppNHp-KRAS G12D mutant protein (Homo sapiens, UniProt P01116, G12D); read-out GppNHp-KRAS G12D (ΔTmD, ° C.); what value for `CCc1c(F)ccc2cc(O)cc(-c3cc4nc(OC[C@@]56CCCN5C[C@H](F)C6)nc(N5C[C@H]6CC[C@@H](C5)N6)c4c4cn(C)nc34)c12` ?
5.76

* * *

So I've got a bunch of molecules here, and I need their GppNHp-KRAS G12D (ΔTmD, ° C.) values.
Biological target: GppNHp-KRAS G12D mutant protein (Homo sapiens, UniProt P01116, G12D)
Construct: purchased Daegu Gyeongbuk Medical Innovation Foundation (DGMIF), made to order
Assay: Differential scanning fluorimetry (DSF) binding affinity to GppNHp-KRAS G12D mutant protein
Settings: DSF thermal shift, 10 μM compound, 4 μg KRAS protein, 50 mM HEPES (pH 7.5)
Give bare numbers, in °C.

Please review the following examples before continuing.
Query: GppNHp-KRAS G12D (ΔTmD, ° C.); subject: `C#Cc1c(F)ccc2cc(O)cc(-c3cc4nc(OCC5(CN6CC[C@@H](F)C6)CC5)nc(N5C[C@H]6CC[C@@H](C5)N6)c4n4ccnc34)c12`
2.81

Query: GppNHp-KRAS G12D (ΔTmD, ° C.); subject: `Cc1cc2c(o1)c(-c1ccc(F)c3sc(N)nc13)c(F)c1nc(OC[C@@]34CCCN3C[C@H](F)C4)nc(N3C[C@H]4CC[C@@H](C3)N4)c12`
1.91

--- query ---
Query: GppNHp-KRAS G12D (ΔTmD, ° C.); subject: `C#Cc1c(F)ccc2cc(O)cc(-c3cc4nc(OC[C@@]56CCCN5C/C(=C\F)C6)nc(N5[C@@H]6CC[C@H]5CNC6)c4n4ccnc34)c12`
6.94

* * *

So I've got a bunch of compounds here, and I need their IC50 values.
Tested on: KRAS G12D mutant pancreatic cancer cell line AsPC-1
Assay: Cell viability assay using KRAS G12D mutant cells (AsPC-1, 3D culture, celltiter-glo 3D)
Type: cell-based
Details: Homo sapiens, ASPC1, 5th day after compound treatment
Method: Test Example 3: Cell Viability Assay Using KRAS G12D Mutant Cells The KRAS G12D mutant pancreatic cancer cell line AsPC-1 was obtained from the Korean Cell Line Bank (KCLB) and maintained in 100-mm dishes or T75 (75 cm^2) flasks using RPM11640+10% fetal bovine serum (FBS)+1% Penicillin-Streptomycin medium. The cells were cultured at 37° C. with 5% CO2. The number of viable cells was counted using Countess (Invitrogen). […]
The reply should consist of the numeric value with the unit placed after it.

Please review the following examples before continuing.
Query: IC50; subject: C#Cc1c(F)ccc2cc(N)cc(-c3c(F)c4nc(OC[C@@]56CCCN5C[C@H](F)C6)nc(N5C[C@H]6CC[C@@H](C5)N6)c4c4cc(C)oc34)c12 [Example 57]
0.101 µM

Query: IC50; subject: C#Cc1c(F)ccc2cc(N)cc(-c3cc4nc(OC[C@@]56CCCN5C/C(=C\F)C6)nc(N5[C@@H]6CC[C@H]5CNC6)c4n4ccnc34)c12 [Example 38]
0.012 µM

Query: IC50; subject: C#Cc1c(F)ccc2cc(O)cc(-c3c(F)c4nc(OCC5(CN6CCC7(CC6)CC7(F)F)CC5)nc(N5C[C@H]6CC[C@@H](C5)N6)c4c4cn(C)nc34)c12 [Example 87]
0.011 µM

Hi team, please reply with IC50 for each item in this list.
1. C#Cc1c(F)ccc2cc(N)cc(-c3cc4nc(OC[C@@]56CCCN5C/C(=C\F)C6)nc(N5C[C@H]6CC[C@@H](C5)N6)c4c4cn(C)nc34)c12 [Example 74]
2. C#Cc1c(F)ccc2cc(O)cc(-c3c(F)c4nc(OC[C@]56CC(=C)CN5C[C@@H](F)C6)nc(N5C[C@H]6CC[C@@H](C5)N6)c4c4cc(C)oc34)c12 [Example 65]
3. C#Cc1c(F)ccc2cc(O)cc(-c3c(F)c4nc(OC[C@@]56CCCN5C[C@H](F)C6)nc(NCC5(N(C)C)CCC5)c4c4cc(C)oc34)c12 [Example 48]
4. C#Cc1c(F)ccc2cc(O)cc(-c3cc4nc(OCC5(CN6C[C@@H]7C[C@H]6CO7)CC5)nc(N5C[C@H]6CC[C@@H](C5)N6)c4n4ccnc34)c12 [Example 12]
5. CCc1c(F)ccc2cc(O)cc(-c3c(F)c4nc(OC[C@@]56CCCN5C[C@H](F)C6)nc(N5C[C@H]6CC[C@@H](C5)N6)c4c4cc(C)oc34)c12 [Example 45]
6. C#Cc1c(F)ccc2cc(O)cc(-c3cc4nc(OC[C@@]56CCCN5C[C@H](F)C6)nc(N5C[C@H]6CC[C@@H](C5)N6)c4c4cn(C)nc34)c12 [Example 69]

1: 0.11 µM; 2: 0.005 µM; 3: 0.136 µM; 4: 0.975 µM; 5: 0.037 µM; 6: 0.19 µM
